# target.under.test: human serum protease thrombin (human, UniProt P00734 328-622)
# assay: phage binding to protein on beads (data not shown)
attribute.measured: binding result

RWCPRTVRRCMKDSDCLAECVCLEHGYCGAGPSYIEGRIVGSA (designed binder, not shown: mature gene III protein of M13 phage) [CMTI-I analogue 118, phage isolate] : no binding
RWCPRSNLECMKDSDCLAECVCLEHGYCGAGPSYIEGRIVGSA (designed binder, not shown: mature gene III protein of M13 phage) [CMTI-I analogue 238, phage isolate] : no binding
RWCPRSSLECMKDSDCLAECVCLEHGYCGAGPSYIEGRIVGSA (designed binder, not shown: mature gene III protein of M13 phage) [CMTI-I analogue 234, phage isolate] : no binding
